- tgt: human ether-à-go-go-related gene (hERG) potassium channel (human, UniProt Q12809)
- Sequence (Q12809 whole entry, looked up): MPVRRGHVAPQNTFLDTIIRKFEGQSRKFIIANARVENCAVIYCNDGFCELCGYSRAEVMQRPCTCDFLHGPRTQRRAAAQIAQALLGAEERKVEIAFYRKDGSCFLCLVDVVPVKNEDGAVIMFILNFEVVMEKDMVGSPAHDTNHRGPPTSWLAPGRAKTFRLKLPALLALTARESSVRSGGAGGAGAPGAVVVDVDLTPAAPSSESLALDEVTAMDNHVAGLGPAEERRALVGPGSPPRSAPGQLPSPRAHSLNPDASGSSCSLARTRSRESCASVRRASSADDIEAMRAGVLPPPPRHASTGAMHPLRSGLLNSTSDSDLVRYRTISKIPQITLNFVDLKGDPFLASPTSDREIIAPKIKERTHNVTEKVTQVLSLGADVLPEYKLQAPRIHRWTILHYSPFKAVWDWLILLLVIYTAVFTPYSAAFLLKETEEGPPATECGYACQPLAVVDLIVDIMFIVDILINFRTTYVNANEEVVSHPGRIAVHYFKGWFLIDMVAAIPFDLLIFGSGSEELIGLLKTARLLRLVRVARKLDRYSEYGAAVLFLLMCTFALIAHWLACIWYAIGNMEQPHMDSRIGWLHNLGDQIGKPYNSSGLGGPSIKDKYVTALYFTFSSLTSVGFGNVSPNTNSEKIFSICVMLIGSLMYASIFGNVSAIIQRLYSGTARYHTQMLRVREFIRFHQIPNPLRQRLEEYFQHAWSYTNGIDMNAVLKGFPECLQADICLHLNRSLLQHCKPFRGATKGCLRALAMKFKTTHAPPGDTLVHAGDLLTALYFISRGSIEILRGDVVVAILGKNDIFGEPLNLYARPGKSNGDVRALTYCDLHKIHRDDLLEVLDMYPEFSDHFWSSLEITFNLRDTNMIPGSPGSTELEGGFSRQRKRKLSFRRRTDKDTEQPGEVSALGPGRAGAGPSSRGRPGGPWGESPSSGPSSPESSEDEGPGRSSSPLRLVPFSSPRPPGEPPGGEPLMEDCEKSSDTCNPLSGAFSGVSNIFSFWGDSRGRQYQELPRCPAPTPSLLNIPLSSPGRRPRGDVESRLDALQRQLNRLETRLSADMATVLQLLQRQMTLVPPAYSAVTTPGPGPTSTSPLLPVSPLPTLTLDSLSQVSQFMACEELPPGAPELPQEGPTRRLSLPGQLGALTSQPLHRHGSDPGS
- protocol: primary screen, population patch clamp on CHO cells stably expressing hERG; higher = less effect of the substance;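 note: peak tail current of the secondary pulse compared with the same well before compound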
Hit rate of the full screen: of about 310,000 compounds, about 14,000 (4.5%) showed an effect of 50% or more. Effects have a minus sign here. This is one part of a sample in which strong results are shown more often than they occur.
Values of hERG current change (%, negative = inhibition) at 10uM greater than or equal to -20% map to fulfilled; values below map to not fulfilled.

> print(dat)
                                  smilesrepr                                       tgt     labelvalue
 1    CCCCCCN=C(C)c1c(O)n(CCCC)c(=O)[nH]c1=O  human ether-à-go-go-related gene (hERG) potassium channel (human, UniProt Q12809)      fulfilled
 2  CCCCn1c(O)c(C(C)=NCCN2CCCCC2)c(=O)[nH]c1=O  human ether-à-go-go-related gene (hERG) potassium channel (human, UniProt Q12809)  not fulfilled
 3  O=C(COc1ccc(F)cc1)Nc1c(C(=O)N2CCC(N3CCCCC3)CC2)oc2ccccc12  human ether-à-go-go-related gene (hERG) potassium channel (human, UniProt Q12809)  not fulfilled
 4  CCC(=NCCO)c1c(O)n(C2CCCCC2)c(=O)[nH]c1=O  human ether-à-go-go-related gene (hERG) potassium channel (human, UniProt Q12809)      fulfilled
 5  CCCCn1c(O)c(C(CC)=NCCN2CCOCC2)c(=O)[nH]c1=O  human ether-à-go-go-related gene (hERG) potassium channel (human, UniProt Q12809)      fulfilled
 6  O=C(COc1ccccc1)Nc1c(C(=O)N2CCC(N3CCCCC3)CC2)oc2ccccc12  human ether-à-go-go-related gene (hERG) potassium channel (human, UniProt Q12809)  not fulfilled
 7  CCCCn1c(O)c(C(CC)=NCCCN(C)C)c(=O)[nH]c1=O  human ether-à-go-go-related gene (hERG) potassium channel (human, UniProt Q12809)  not fulfilled
 8  CCCCn1c(O)c(C(CC)=NCCCn2ccnc2)c(=O)[nH]c1=O  human ether-à-go-go-related gene (hERG) potassium channel (human, UniProt Q12809)  not fulfilled
 9  CCC(=NCCCn1ccnc1)c1c(O)n(-c2ccccc2)c(=O)[nH]c1=O  human ether-à-go-go-related gene (hERG) potassium channel (human, UniProt Q12809)      fulfilled
10   CCCCCCN=C(CC)c1c(O)n(CCCC)c(=O)[nH]c1=O  human ether-à-go-go-related gene (hERG) potassium channel (human, UniProt Q12809)  not fulfilled
